target: Mu-type opioid receptor (Homo sapiens) (UniProt P35372); assay: Induction of receptor internalization in YC-tagged mu opioid receptor expressed in CHO cells after 90 mins; type: cell-based
Sequence (P35372 whole entry): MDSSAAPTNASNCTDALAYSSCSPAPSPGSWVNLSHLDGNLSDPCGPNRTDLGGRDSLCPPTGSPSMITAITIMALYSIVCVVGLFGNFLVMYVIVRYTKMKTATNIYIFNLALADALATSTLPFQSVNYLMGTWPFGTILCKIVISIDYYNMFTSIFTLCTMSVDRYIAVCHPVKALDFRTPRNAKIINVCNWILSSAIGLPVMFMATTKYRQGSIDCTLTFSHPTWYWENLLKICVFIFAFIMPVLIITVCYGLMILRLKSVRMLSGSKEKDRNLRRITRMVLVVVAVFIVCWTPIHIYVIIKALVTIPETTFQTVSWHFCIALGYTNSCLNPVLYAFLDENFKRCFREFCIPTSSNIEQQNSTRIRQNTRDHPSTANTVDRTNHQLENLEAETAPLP
The source made the active and inactive calls. No cut-off for these calls is given here.
Possible outcomes: label 1 for active, label 0 for inactive

cpd.smiles	label
CN1C(=O)[C@H](NC(=O)Nc2cccc(OCCNC(=O)COCC(=O)NNC(=O)COCC(=O)N[C@H]3CC[C@@]4(O)C5Cc6ccc(O)c7c6[C@@]4(CCN5)[C@H]3O7)c2)N=C(c2ccccc2)c2ccccc21	label 1
CN1C(=O)[C@H](NC(=O)Nc2cccc(OCCNC(=O)COCC(=O)NCCNC(=O)COCC(=O)N[C@H]3CC[C@@]4(O)C5Cc6ccc(O)c7c6[C@@]4(CCN5)[C@H]3O7)c2)N=C(c2ccccc2)c2ccccc21	label 1
CNC(=O)COCC(=O)NCCCCNC(=O)COCC(=O)N[C@H]1CC[C@@]2(O)C3Cc4ccc(O)c5c4[C@@]2(CCN3C)[C@H]1O5	label 0
CN1C(=O)[C@H](NC(=O)Nc2cccc(OCCNC(=O)COCC(=O)N[C@H]3CC[C@@]4(O)C5Cc6ccc(O)c7c6[C@@]4(CCN5)[C@H]3O7)c2)N=C(c2ccccc2)c2ccccc21	label 0
CNC(=O)COCC(=O)NCCCCCCNC(=O)COCC(=O)NCCOc1cccc(NC(=O)N[C@@H]2N=C(c3ccccc3)c3ccccc3N(C)C2=O)c1	label 0
CN1C(=O)[C@H](NC(=O)Nc2cccc(OCCNC(=O)COCC(=O)NCCCCCCNC(=O)COCC(=O)N[C@H]3CC[C@@]4(O)C5Cc6ccc(O)c7c6[C@@]4(CCN5)[C@H]3O7)c2)N=C(c2ccccc2)c2ccccc21	label 1
